Data provenance is patent US7022716B2.

# target-or-test-system: human β3 adrenergic receptor (Homo sapiens, UniProt P13945)
# Construct: Full length β3 AR clones (402 amino acids) containing the last 6 amino acids of hβ3-AR are prepared; expressed in transfected cells; host or cells: CHO (Chinese hamster ovary) cells
# Sequence (P13945 whole entry): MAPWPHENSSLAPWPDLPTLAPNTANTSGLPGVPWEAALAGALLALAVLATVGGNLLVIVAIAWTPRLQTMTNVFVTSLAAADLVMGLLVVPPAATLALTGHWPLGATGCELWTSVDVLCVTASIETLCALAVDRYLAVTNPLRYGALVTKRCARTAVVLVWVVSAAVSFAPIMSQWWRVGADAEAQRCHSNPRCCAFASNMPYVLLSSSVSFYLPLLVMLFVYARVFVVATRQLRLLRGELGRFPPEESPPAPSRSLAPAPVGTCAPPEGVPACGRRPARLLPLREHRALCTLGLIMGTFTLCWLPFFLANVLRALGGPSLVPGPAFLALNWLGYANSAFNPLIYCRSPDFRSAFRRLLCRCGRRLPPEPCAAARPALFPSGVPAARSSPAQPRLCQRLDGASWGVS
# assay-text: cAMP (SPA) response in CHO cells transfected with human β3 adrenergic receptor
# Assay type: cell-based
# Design: key: fraction of maximal isoproterenol (10^-5 M) response
# condition-context: maximal response relative to maximal response of isoproterenol at 10^-5 M
# Experimental: Binding to the receptors was measured in Chinese Hamster ovary (CHO) cells that were transfected with adrenergic receptors. The corresponding primer sequences are described in Mantzoros, C. […] The four fragments are ligated into a pUC 18 plasmid (Gibco-BRL) and sequenced. […] Data Analysis and Results: Data collected from the SPA test procedure were analyzed as percent of the maximal isoproterenol response at 10^−5 M. Activity curves were plotted using the SAS statistical and graphics software.
Threshold 0.9: IA(β3) strictly smaller gives 1.0, otherwise 0.0.

Worked cases, answers included:
CCOC(=O)Cn1nnnc1-c1ccc(N2CCC(NC[C@H](O)c3ccc(O)c(NS(C)(=O)=O)c3)CC2)cc1 [Example 98]: 0.0
CS(=O)(=O)Nc1cc([C@@H](O)CNC2CCN(c3ccc(NC(=O)c4ccc5c(c4)OCO5)cc3)CC2)ccc1O [Example 394]: 0.0
CN(C)CC(=O)Nc1ccc(N2CCC(NC[C@H](O)COc3cccc4[nH]c(=O)[nH]c34)CC2)cc1 [Example 384]: 1.0

is_below(IA(β3), 0.9) for COc1ccc(S(=O)(=O)Nc2ccc(N3CCC(NCC(O)c4cccc(O)c4)CC3)cc2)cc1OC (stereo not shown) [Example 361] ? 1.0

is_below(IA(β3), 0.9) for CS(=O)(=O)Nc1cc([C@@H](O)CNC2CCN(c3ccc(CC4SC(=O)NC4=O)cc3)CC2)ccc1Cl (stereo partly shown) [Example 95] ? 1.0

is_below(IA(β3), 0.9) for CC(C)C[C@@H](CO)NC(=O)c1ccc(N2CCC(NC[C@H](O)c3ccc(O)c(NS(C)(=O)=O)c3)CC2)cc1 [Example 211] ? 0.0

====

# target-or-test-system: human β3 adrenergic receptor (Homo sapiens)
# Construct: Full length β3 AR clones (402 amino acids) containing the last 6 amino acids of hβ3-AR are prepared; expressed in transfected cells; host or cells: CHO (Chinese hamster ovary) cells
# assay-text: cAMP (SPA) response in CHO cells transfected with human β3 adrenergic receptor
# Type: cell-based
# Design: key: fraction of maximal isoproterenol (10^-5 M) response
# condition-context: maximal response relative to maximal response of isoproterenol at 10^-5 M
observed-property: IA(β3)
Numbers only.

Example entries and their recorded answers appear below.
COc1ccc(S(=O)(=O)Nc2ccc(N3CCC(NCC(O)c4ccccc4)CC3)cc2)cc1 (stereo not shown) [Example 255]: 0.72
CCCC(=O)Nc1ccc(N2CCC(NC[C@H](O)COc3cccc4[nH]c5ccccc5c34)CC2)cc1 [Example 387]: 0.56
CCOC(=O)C(=Cc1ccc(N2CCC(NCC(O)c3ccc(O)c(NS(C)(=O)=O)c3)CC2)cc1)C(=O)OCC (stereo not shown) [Example 188]: 0.91

Then there is this compound:
API: value(readout= IA(β3), system= human β3 adrenergic receptor (Homo sapiens), query= CCOC(=O)CC[C@H](NC(=O)c1ccc(N2CCC(NC[C@H](O)c3ccc(O)c(NS(C)(=O)=O)c3)CC2)cc1)C(=O)OCC [Example 192] ) 0.97
